Kindly find below Ki information for 5-hydroxytryptamine receptor 7 (Homo sapiens) taken from the literature.
MEASURED ENDPOINT: Ki (nM)

> print(dat)
                                   compound  measured.endpoint  readout.relation  measured.number
1  N#Cc1ccc(N2CC[C@H](NCCC(=O)c3csc4ccccc34)C2)cc1                 Ki                 >           100000
2  CC(Nc1nc(N)nc(NCCc2ccncc2)n1)c1ccc(F)cc1 (racemic)                 Ki                 >             1000
3  Fc1ccc2c(CCNCc3cccc(OCC(F)(F)C(F)F)c3)c[nH]c2c1                 Ki                 =             8640
4  CN1CCN(c2nc(N)nc(CS(=O)(=O)c3ccccc3Cl)n2)CC1                 Ki                 =            98400
5  O=C1CCCC(=O)N1CCCCN1CCN(c2cccc(C(F)(F)F)c2)CC1                 Ki                 =               21
6  CCC1(CCCCN2CCN(c3ccc(Cl)c(Cl)c3)CC2)C(=O)Nc2ccccc21 (stereo not drawn)                 Ki                 =              0.6
7  O=c1c2cnc3ccccc3c2ncn1CCCCN1CCN(c2cccc(C(F)(F)F)c2)CC1                 Ki                 =              418
8  COc1ccc(N2CCN(CCCCn3cnc4c(cnc5ccccc54)c3=O)CC2)cc1                 Ki                 >            10000

###

pKi: −log10 of the molar value.
Kindly find below pKi information for 5-hydroxytryptamine receptor 7 (Homo sapiens) taken from the literature.
MEASURED ENDPOINT: pKi

> print(dat)
                                   compound  measured.endpoint  result
1      O=S(=O)(c1ccccc1)C1(CCCN2CCOCC2)CCC1                pKi  < 5.15
2            Cc1cccc(C)c1-c1cnnc(CCN(C)C)n1                pKi  < 5.00
3  CC1(c2cccc(O)c2)C(=O)Nc2cc(Cl)cc(Cl)c2C1=O (stereo not drawn)                pKi  < 5.00
